From: the RNAGym collection of RNA variant scans (doi:10.1126/science.aae0568)

Reported yeast fitness values for a set of variants
B1: tRNA (parent)
chain: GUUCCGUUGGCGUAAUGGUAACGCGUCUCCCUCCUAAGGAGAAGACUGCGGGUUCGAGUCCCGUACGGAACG

# Variants of: B1
# EXPERIMENT NOTES: yeast fitness relative to wild type (ratio to wild type); higher = fitter; tRNA-Arg(CCU), competitive growth, 37 C, YPD
Fewer inactive variants are shown than the library holds.

The examples below pair each entry with its known result.
1) GUUGCGUUGGCGUAAUGGUCACGCGUCUCCUUCCUAAGGAGAAGACUGCGGGUUCGAGUCCCGUACGGAACG ... 0.536
2) GUUCCGUUGGCGUAAUGGUAGCGCGACUCCCUCUUAAGGAGAAGACUGCCGGUUCGAGUCCUGUACGGAACG ... ≤ 0.5

yeast fitness for GUUCCGUUGGCGUCAUGGUAACGGGUCUCCCUCCUAAGAAGAGGACUGCGGGUUCGAGUCCCGUACGGAACG is ≤ 0.5

yeast fitness for GUCCCGUUGGCGUAACGGUAACGCGUCUCGGUCCUAUGGAGAAGACUGCGGGUUCCAGUCCCGUACGGAACG is ≤ 0.5

yeast fitness for GUUCCCUUGGCGUAAUGGUAACGCGUCUCCCUCCUAAGGAAAGGACUGCGGGUUCGAGUUCCGUACGGACCG is ≤ 0.5

yeast fitness for GUUCCGUUGGCGUAAUGGUAACGCGUCUCCCUCCUAAGGAGAAGACUGCCGGUACGAGUCACGUACGGAACG is 0.676

yeast fitness for GUUCCGUUGACGUAAUGGUAACGCGUCUCCCUCCUGAGGAGAAGACUGCGGGUUCGAGUGCCGUACGGAACG is ≤ 0.5

yeast fitness for GUUCCGUUGGCGUAGUGGUAACGCGUCUCCUUCCUAAGGAGAAGACUGCGGGUUCGAGUCCCGUACGGAACG is 0.987
